Test system: Staphylococcus aureus
assay method text: Antimicrobial activity against Staphylococcus aureus ATCC 25923 after 16 to 18 hrs by agar dilution method
Format: functional
measured attribute: MIC (mg/L)

# count of solved cases: 6
compound	readout number
CCCCCc1ccc(/C(C/C=N/OCC)=N\OCC)cc1	64
CCCCCc1ccc(/C(C/C=N/OC)=N\OC)cc1	64
CCCCCc1ccc(C(=O)C/C=N/OC)cc1	4
CCO/N=C/CC(=O)c1ccc(CC)cc1	4
CO/N=C/CC(=O)c1ccc(C)cc1	4
CC[C@H]1OC(=O)[C@H](C)[C@@H](O[C@H]2C[C@@](C)(OC)[C@@H](O)[C@H](C)O2)[C@H](C)[C@@H](O[C@@H]2O[C@H](C)C[C@H](N(C)C)[C@H]2O)[C@](C)(OC)C[C@@H](C)C(=O)[C@H](C)[C@@H](O)[C@]1(C)O [CLARITHROMYCIN]	0.12

a: CCCCCc1ccc(C(=O)C/C=N/OCC)cc1
b: CCO/N=C(/C/C=N/OCC)c1ccc(C(C)C)cc1
c: Cc1ccc(C(=O)C/C=N/O)cc1
Prompt: Arrange the 3 entries by MIC so the values rise. Please list the labels according to the requested order.
Response: a, b, c

Cited source: ChEMBL document CHEMBL1137674
